Target: F508del (Homo sapiens, UniProt P13569, DEL508-508)
Construct: expressed in transfected cells
Sequence (P13569 with tags, fused parts or gaps DEL508-508): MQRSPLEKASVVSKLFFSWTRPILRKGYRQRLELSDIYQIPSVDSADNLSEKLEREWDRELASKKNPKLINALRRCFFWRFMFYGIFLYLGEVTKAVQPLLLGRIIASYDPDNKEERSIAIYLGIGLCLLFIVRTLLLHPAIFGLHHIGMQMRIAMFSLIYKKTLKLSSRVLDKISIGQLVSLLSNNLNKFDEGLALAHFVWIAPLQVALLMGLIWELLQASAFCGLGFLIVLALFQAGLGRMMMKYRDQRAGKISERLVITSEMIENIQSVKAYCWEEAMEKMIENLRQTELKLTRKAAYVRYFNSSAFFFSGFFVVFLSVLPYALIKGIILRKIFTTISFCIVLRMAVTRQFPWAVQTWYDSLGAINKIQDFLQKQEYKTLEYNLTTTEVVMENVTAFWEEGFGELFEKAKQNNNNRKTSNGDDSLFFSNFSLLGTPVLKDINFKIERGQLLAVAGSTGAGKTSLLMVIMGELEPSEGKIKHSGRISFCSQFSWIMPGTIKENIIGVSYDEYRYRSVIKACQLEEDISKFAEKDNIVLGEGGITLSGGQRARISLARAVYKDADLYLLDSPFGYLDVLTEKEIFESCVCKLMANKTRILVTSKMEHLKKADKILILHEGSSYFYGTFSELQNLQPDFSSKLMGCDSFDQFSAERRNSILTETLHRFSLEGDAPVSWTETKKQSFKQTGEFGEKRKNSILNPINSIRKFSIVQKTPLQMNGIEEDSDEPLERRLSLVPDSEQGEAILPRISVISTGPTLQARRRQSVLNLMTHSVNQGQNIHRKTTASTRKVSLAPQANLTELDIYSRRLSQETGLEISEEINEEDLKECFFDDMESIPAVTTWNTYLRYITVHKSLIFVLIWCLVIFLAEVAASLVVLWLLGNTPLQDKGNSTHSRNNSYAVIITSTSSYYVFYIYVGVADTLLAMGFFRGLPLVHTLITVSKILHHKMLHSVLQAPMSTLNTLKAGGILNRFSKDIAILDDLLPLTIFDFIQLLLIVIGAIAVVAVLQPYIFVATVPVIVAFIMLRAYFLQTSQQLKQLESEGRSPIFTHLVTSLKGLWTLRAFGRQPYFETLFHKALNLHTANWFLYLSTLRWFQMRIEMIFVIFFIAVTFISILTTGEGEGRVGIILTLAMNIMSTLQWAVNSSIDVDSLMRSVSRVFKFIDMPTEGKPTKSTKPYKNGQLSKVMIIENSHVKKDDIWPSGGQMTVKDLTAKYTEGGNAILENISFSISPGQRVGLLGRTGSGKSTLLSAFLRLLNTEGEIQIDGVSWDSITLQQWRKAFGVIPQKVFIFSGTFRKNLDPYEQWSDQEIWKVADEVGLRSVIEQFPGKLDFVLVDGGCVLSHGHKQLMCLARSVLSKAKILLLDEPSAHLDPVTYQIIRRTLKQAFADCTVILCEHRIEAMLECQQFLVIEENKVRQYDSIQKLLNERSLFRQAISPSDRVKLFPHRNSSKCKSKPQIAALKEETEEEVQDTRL
Test: Protocol 2: FRET membrane potential optical assay (VIPR), identification of correction compounds
Type: cell-based
Conditions: F508del CFTR modulator activity; compounds of Table 1; read-out: EC30
Measure Name: EC30

Here is how some compounds turned out for EC30.
COc1cc(F)c(-c2ccc(C(=O)NS(=O)(=O)c3cccnc3N)c(N3C[C@@H](C)CC3(C)C)n2)cc1F ... < 3 µM
Cc1ccc2cccc(Oc3cccc(S(=O)(=O)NC(=O)c4cccnc4N4CC(C)CC4(C)C)n3)c2n1 (stereo not shown) ... < 3 µM
CC1CN(c2ncccc2C(=O)NS(=O)(=O)c2cccc(N3CCc4ccc(F)cc4C3)n2)C(C)(C)C1 (stereo not shown) ... < 3 µM
Cc1cc(C)cc(-c2ccc(C(=O)NS(=O)(=O)c3cccnc3N)c(N3C[C@@H](C)CC3(C)C)n2)c1 ... < 3 µM
CC1CN(c2ncccc2C(=O)NS(=O)(=O)c2cccc(Oc3ccccc3F)n2)C(C)(C)C1 (stereo not shown) ... < 3 µM
C[C@@H]1CN(c2nc(-c3ccc(Cl)cc3)ccc2C(=O)NS(=O)(=O)c2cccnc2N)C(C)(C)C1 ... < 3 µM
CCCOCCNc1cccc(S(=O)(=O)NC(=O)c2cccnc2N2CC(C)CC2(C)C)n1 (stereo not shown) ... 3 to 10 µM
COc1ccccc1Oc1cccc(S(=O)(=O)NC(=O)c2cccnc2N2CC(C)CC2(C)C)n1 (stereo not shown) ... < 3 µM
CC1CN(c2ncccc2C(=O)NS(=O)(=O)c2cccc(Nc3ccc(F)c(F)c3)n2)C(C)(C)C1 (stereo not shown) ... < 3 µM
CC1CN(c2ncccc2C(=O)NS(=O)(=O)c2cccc(OCC3OCc4ccccc4O3)n2)C(C)(C)C1 (stereo not shown) ... < 3 µM

Request: Requested field: EC30. Item: COc1cccc(-c2cnc(N3CC(C)CC3(C)C)c(C(=O)NS(=O)(=O)c3cccc(N)n3)c2)c1 (stereo not shown)
Response: < 3 µM

Request: Requested field: EC30. Item: CC1CN(c2ncccc2C(=O)NS(=O)(=O)c2cccc(Oc3ccc4ccccc4c3)n2)C(C)(C)C1 (stereo not shown)
Response: < 3 µM

Request: Requested field: EC30. Item: CC(C)Oc1ccc(-c2ccc(C(=O)NS(=O)(=O)N3CC[C@H](N)C3)c(N3C[C@@H](C)CC3(C)C)n2)cc1
Response: < 3 µM

----------
Biological target: F508del (Homo sapiens, UniProt P13569, DEL508-508)
Construct: expressed in transfected cells
Assay: Protocol 2: FRET membrane potential optical assay (VIPR), identification of correction compounds
Format: cell-based
Conditions: Table 3; compounds of Table 1 as modulators of CFTR activity; protocol not stated
Measure Name: EC30

Cc1cc(C)c(Cn2c(C(=O)NS(=O)(=O)c3cccc(N)c3)cc3ccc(C)cc32)c(C)c1 ... +++ (“+++” means <3 uM)
Cc1cc(C)c(Oc2nc(C(C)(C)C)ccc2C(=O)NS(=O)(=O)c2cccnc2)c(C)c1 ... +++ (“+++” means <3 uM)
Cc1cc(C)c(Oc2nc(-c3ccc(F)cc3)ccc2C(=O)NS(=O)(=O)c2cc[nH]n2)c(C)c1 ... +++ (“+++” means <3 uM)
Cc1cc(C)c(Oc2nc(C(F)(F)F)ccc2C(=O)NS(=O)(=O)c2ccccc2)c(C)c1 ... +++ (“+++” means <3 uM)
COCc1ccc(-c2ccc(C(=O)NS(=O)(=O)c3cccc(N)n3)c(Oc3c(C)cc(C)cc3C)n2)cc1 ... +++ (“+++” means <3 uM)

Request: Requested field: EC30. Item: COc1c(F)cccc1-c1ccc(C(=O)NS(=O)(=O)c2cccc(N)n2)c(Oc2c(C)cc(C)cc2C)n1
Response: +++ (“+++” means <3 uM)
